target: VEGFR2 (KDR) extracellular domain/Fc (Homo sapiens) (UniProt P35968); assay: filter; details: 2'-F pyrimidines; as printed; differs from 36 ± 3 nM in Table 1 legend
Sequence (P35968 20-764): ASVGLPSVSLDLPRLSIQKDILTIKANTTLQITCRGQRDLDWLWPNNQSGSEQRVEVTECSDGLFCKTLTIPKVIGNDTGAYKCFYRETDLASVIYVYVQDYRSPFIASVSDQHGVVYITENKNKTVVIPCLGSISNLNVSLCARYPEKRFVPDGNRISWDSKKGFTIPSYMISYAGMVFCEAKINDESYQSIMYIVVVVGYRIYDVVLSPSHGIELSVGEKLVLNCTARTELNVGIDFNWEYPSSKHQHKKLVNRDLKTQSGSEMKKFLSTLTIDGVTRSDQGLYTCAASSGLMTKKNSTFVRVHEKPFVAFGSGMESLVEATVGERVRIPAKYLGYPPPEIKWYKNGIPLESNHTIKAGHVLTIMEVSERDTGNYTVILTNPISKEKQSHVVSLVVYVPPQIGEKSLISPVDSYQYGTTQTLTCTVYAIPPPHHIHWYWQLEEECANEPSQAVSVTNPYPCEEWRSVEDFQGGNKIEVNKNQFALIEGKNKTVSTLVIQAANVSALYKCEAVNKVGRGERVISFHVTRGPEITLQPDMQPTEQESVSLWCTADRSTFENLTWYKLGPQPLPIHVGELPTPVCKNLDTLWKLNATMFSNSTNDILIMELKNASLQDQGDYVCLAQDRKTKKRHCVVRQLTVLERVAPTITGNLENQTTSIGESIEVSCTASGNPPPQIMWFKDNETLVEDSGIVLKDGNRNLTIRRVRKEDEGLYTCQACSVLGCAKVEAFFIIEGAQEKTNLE
readout: pKd
API: returns pKd as number; meaning -log10 of concentration in mol/L.

Prompt: Could you tell me which pKd is on file for GGGAGGACGAUGCGGNNNNNNNNNNNNNNNNNNNNNNNNNNNNNNNNNNNNNNNNCAGACGACUCGCCCGA [40N7 starting random library (round 0)] ?
Response: 6.44

====

biological target: VEGFR2 (KDR) extracellular domain/Fc (Homo sapiens); experiment: filter; settings: 2'-F pyrimidines; 30N clone
readout: Kd (nM)
State just the number; it will be interpreted in nM.

Prompt: Return Kd measured with VEGFR2 (KDR) extracellular domain/Fc (Homo sapiens) given this sequence: GGGAGGACGAUGCGGAGCACUUGACCCACNACCAGAAAGCCAGCCCAGACGACUCGCCCGA [K6]
Response: 0.98

====

For each entry below, report its Kd value.
target: VEGFR2 (KDR) extracellular domain/Fc (Homo sapiens); assay: filter; conditions: 2'-F pyrimidines; HBSMC, 37 C
Reply with the number, then its unit.

Prompt: Could you tell me which Kd is on file for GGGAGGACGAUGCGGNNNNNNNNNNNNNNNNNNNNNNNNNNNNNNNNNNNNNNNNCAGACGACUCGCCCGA [40N7 starting random library (round 0)] ?
Response: 36 nM

Prompt: And then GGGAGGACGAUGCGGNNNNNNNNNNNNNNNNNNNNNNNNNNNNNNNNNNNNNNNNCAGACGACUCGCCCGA [KDR SELEX round 2 pool] , what is it?
Response: 0.68 nM

Prompt: And then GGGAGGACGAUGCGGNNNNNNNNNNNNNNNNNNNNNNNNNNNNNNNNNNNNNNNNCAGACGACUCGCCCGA [KDR SELEX round 4 pool] , what is it?
Response: 0.581 nM

Prompt: And then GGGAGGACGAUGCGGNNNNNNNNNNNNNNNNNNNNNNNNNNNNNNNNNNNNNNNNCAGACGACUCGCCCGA [KDR SELEX round 3 pool] , what is it?
Response: 0.8 nM

Prompt: And then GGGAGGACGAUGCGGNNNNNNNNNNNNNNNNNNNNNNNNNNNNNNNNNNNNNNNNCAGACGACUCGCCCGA [KDR SELEX round 5 pool] , what is it?
Response: 0.83 nM

The reported numbers originate from patent US6762290.
